# PROTOCOL DESCRIPTION: gradient 5% acetonitrile 3 min, to 50% in 2 min, to 85% in 15 min, held 3 min, 100 µL/min
# CONDITION CONTEXT: column: Zorbax Extend-C18 2.1 x 50 mm; eluents: water / acetonitrile, 0.1% formic acid
PROPERTY MEASURED: RP-LC retention time (s)

Look over these answered cases.
• O=C(Cn1ccn2nc(-c3ccccc3)c(CO)c2c1=O)N1CCCc2ccccc21 = 861
• Cc1cc(C)c(CNC(=O)c2ccc(NC(=O)C3CC3)cc2N2CCOCC2)c(C)c1 = 901
• COC(=O)C(C)Oc1cc(O)c2c(=O)cc(-c3ccccc3)oc2c1 (stereo not given) = 1060

(A) Cc1nc(-c2cccc(-c3noc(COc4ccc(Cl)cc4)n3)c2)cs1
(B) CC(C)c1nc2c(NC(=O)C3CC3)cccn2n1
Problem: Of A and B , which one carries the higher reported RP-LC retention time? Refer to your chosen item by its label in the answer.
Solution: A
(A: 1280 s, B: 733 s)

----------
# PROTOCOL DESCRIPTION: gradient 5% acetonitrile 3 min, to 50% in 2 min, to 85% in 15 min, held 3 min, 100 µL/min
# CONDITION CONTEXT: column: Zorbax Extend-C18 2.1 x 50 mm; eluents: water / acetonitrile, 0.1% formic acid
PROPERTY MEASURED: RP-LC retention time (s)

- CCc1noc(NC(C)=O)c1-c1ccc(OC)c(S(=O)(=O)NC2CCCCCCC2)c1: 939
- Cc1ccc(-c2cn3c(CC(=O)NCc4ccc5c(c4)OCO5)csc3n2)cc1C: 794

(I) CC1CCCN(S(=O)(=O)c2ccc(-n3cnc(C(=O)NCC4CC4)c3)nc2)C1 (centres undefined)
(II) Cc1ccc2c(=O)c3c([nH]c2c1C)CCN(CC(=O)Nc1ccc(F)cc1F)C3
Problem: Could you check which of I and II has a smaller value for RP-LC retention time? Give the label of your selection.
Solution: II
(II: 615 s, I: 902 s)

(1) Cc1nnc(-c2nnc(NCc3ccccc3Cl)c3ccccc23)o1
(2) CN1CCN(CCCNC(=O)C2c3ccccc3C(=O)N(C)C2c2cccs2)CC1 (centres undefined)
Problem: Field: lower RP-LC retention time | Options: 1 / 2 # reply format: chosen label
Solution: 2

----------
# PROTOCOL DESCRIPTION: gradient 5% acetonitrile 3 min, to 50% in 2 min, to 85% in 15 min, held 3 min, 100 µL/min
# CONDITION CONTEXT: column: Zorbax Extend-C18 2.1 x 50 mm; eluents: water / acetonitrile, 0.1% formic acid
PROPERTY MEASURED: RP-LC retention time (s)

Below, each entry is followed by its recorded RP-LC retention time result.
• Cc1cccc(NC(=O)Cn2c(N)nc(C)cc2=O)c1 = 601
• O=C(NCC(F)(F)F)C1CCN(C(=O)Cc2noc3ccccc23)CC1 = 687
• COc1ccc(NC(=O)C(=O)c2cccn2C)c(OC)c1 = 976
• C/C=C1/C(=O)C[C@H]2[C@@H]3CCC4=CC(=O)CC[C@]4(C)[C@H]3CC[C@]12C = 1100
• COc1cc(C(=O)NCC(=O)Nc2nc3ccccc3[nH]2)cc(OC)c1OC = 617
• CCOc1ccc(OCC)c(N2C=C(C#N)S(=O)(=O)c3cc(F)ccc32)c1 = 1030

(I) COc1cccc(-c2ccc(=O)n(CCc3nc(-c4cc(OC)cc(OC)c4)no3)n2)c1
(II) Cc1ccc(N2CCC(NC(=O)c3ccc4nc[nH]c4c3)C2=O)cc1 (stereo not given)
Problem: Exercise: compare I and II ; which one has the greater RP-LC retention time? Return value: the label identifying the chosen record.
Solution: I
